Listing of recorded z-score by entry.
- TGT: NADPH oxidase 5 (Homo sapiens)
- TEST DETAILS: compounds shifting NOX5 Amplex Red fluorescence – cell-based, HEK293-NOX5, NOX inhibitor project, primary screen (AID 1161)
- RUN PARAMETERS: HEK293-NOX5, ionomycin, 45 min, higher = more signal

COMPOUND	z-score
CN(C)CCCNC(=O)[C@@]1(Cc2ccccc2I)c2ccccc2C(=O)N(C2CCCCC2)[C@H]1c1ccc(CO)cc1	-3.65
C=CCN1C(=O)[C@@]2(O[C@@H](CCn3cc([C@H](O)c4ccccc4)nn3)[C@H]([Si](C)(C)c3ccc(OC)cc3)[C@H]2C)c2cc(N3C(=O)c4cccc5cccc3c45)ccc21	2.52
CC(C)NC(=O)[C@@]1(c2ccc([N+](=O)[O-])cc2)CC(=O)N(CC23CC4CC(CC(C4)C2)C3)[C@@H]1c1ccc(CO)cc1	-0.0647
CN(C)CCCCNC(=O)[C@H]1C[C@H]2C(=O)NCC(=O)N2[C@H]1c1ccc(O)cc1	1.18
COc1ccccc1CN1C(=O)c2ccccc2[C@](Cc2ccccc2I)(C(=O)NCC(C)C)[C@@H]1c1ccc(CO)cc1	-0.234
CC(C)OC(=O)CC(=O)CC(O)c1cccc([N+](=O)[O-])c1 (stereo not given)	0.435
O=C(NCc1ccc(F)cc1)[C@H]1C[C@H]2C(=O)N3CCC[C@H]3C(=O)N2[C@H]1c1ccc(O)cc1	0.601
CCOC(=O)c1cn(C[C@H](Cc2ccccc2)NC(=O)N[C@H](CO)CCc2oc(C(C)=O)c(C(=O)OC)c2C(=O)OC)nn1	-1.9
CCCCCC1=C2CNC(Cc3ccccc3)(C(=O)OC)C=C2C(C)C1=O (stereo not given)	-3
O=C1O[C@@H](c2ccccc2)[C@@H](c2ccccc2)N2[C@@H](c3ccccc3OCCO)[C@]3(C(=O)Nc4ccc(C#CCCO)cc43)[C@@H](C(=O)NC[C@H](O)c3ccccc3)[C@H]12	0.689
O=C1NC(=O)C2C1C=CC(C(O)c1ccc([N+](=O)[O-])cc1)N2Nc1ccccn1 (stereo not given)	-1.96
CN1C(=O)C2C(C1=O)C1C=C(CCCO)C2C(C2CC2)N1Cc1cccc(OC(F)(F)F)c1 (stereo not given)	1.2
C=CCN1Cc2ccccc2[C@H]2OC(c3ccc(OCCCO)cc3)=N[C@@]2(CCS(=O)(=O)c2ccccc2)C1=O	0.119
O=C(NC1CC1)[C@@H]1c2ccccc2C(=O)N(CC23CC4CC(CC(C4)C2)C3)[C@H]1c1ccc(CO)cc1	0.412
COC(=O)[C@@]1(Cc2ccc(OC)cc2)[C@H]2c3cc(C(=O)N4CCCC4)n(Cc4ccc(C(F)(F)F)nc4)c3C[C@H]2CN1C(=O)c1ccccc1	0.63
CCCc1cc2c(n1CCc1ccc(Cl)cc1)C(C)C1CN(C(=O)c3ccccc3)C(C)(C(=O)OC)C21 (stereo not given)	-5.16
COCCOC(=O)N1C(=O)[C@@]2(c3cc(C#Cc4ccc(OC)cc4)ccc31)[C@H](c1ccc(OCCO)cc1)N1[C@H](c3ccccc3)[C@H](c3ccccc3)OC(=O)[C@H]1[C@@H]2C(=O)NC[C@H](O)c1ccccc1	1.11
C=CC[C@@]1(C(=O)OC)N=C(c2ccc(OCCCO)cc2)O[C@@H]1c1ccccc1N=[N+]=[N-]	-0.0237
C[C@@H]1ON(c2ccccc2)[C@H](c2ccccc2)[C@H]1C(=O)O	0.46
C=C(CCCC)/C(=C/C[C@H](OC(=O)c1ccncc1)c1ccc(OCCO)cc1)c1cnc2ccccc2c1	-0.964
NC(=O)NCC#Cc1ccc2c(c1)[C@]1(C(=O)N2)[C@H](c2ccc(OCCO)cc2)N2[C@H](c3ccccc3)[C@H](c3ccccc3)OC(=O)[C@H]2[C@@H]1C(=O)O	-0.441
CC(C)(C)N1CC=CC23O[C@@H]4/C=C\CCCOC(=O)C4[C@H]2C(=O)N(CCCO)[C@@H]3C1=O (stereo not given in full)	2.51
COc1ccc([Si](C)(C)[C@H]2[C@H](CCO)O[C@@]3(C(=O)N(Cc4cccc(N5C(=O)c6ccccc6Oc6ccccc65)c4)c4ccccc43)[C@@H]2C)cc1	1.1
CCCC=C(CCC)[C@@H](NC(=O)c1ccc(C(F)(F)F)cc1)c1ccc(C(F)(F)F)cc1	2.97
CC1CC/C=C\[C@H]2OC34C=CCN(CCN5CCOCC5)C(=O)[C@H]3N(CCCO)C(=O)[C@@H]4C2C(=O)O1 (stereo not given in full)	0.947
COCC(=C=CC[C@H](O)c1ccccc1OCCO)C[C@H](O)COCc1ccccc1	-1.92
CCOc1cc(C(O)C2C=CC3C(=O)N(c4ccccc4)C(=O)C3N2Nc2ccccc2F)ccc1O (stereo not given)	-4.13
[N-]=[N+]=NCc1ccccc1[C@@H]1OC(c2ccc(OCCCO)cc2)=N[C@]1(Cc1ccccc1N=[N+]=[N-])C(=O)O	0.58
CCCC#C[Si](O[C@H](CC)c1cn(Cc2ccccc2)nn1)(C(C)C)C(C)C	0.521
CO[C@H]1O[C@H](CO)[C@@H](OC(=O)Nc2ccccc2-c2ccccc2)[C@H](OC(=O)Nc2ccccc2)[C@H]1OC(=O)Nc1ccccc1	-1.4

###

- TGT: NADPH oxidase 4 (Homo sapiens)
- TEST DETAILS: compounds shifting NOX4 Amplex Red fluorescence – cell-based, HEK293-NOX4, tetracycline-induced, NOX inhibitor project, primary screen (AID 1160)
- RUN PARAMETERS: HEK293-NOX4, Amplex Red H2O2 fluorescence, 45 min; higher = more signal, called active from +8 up or from −8 down
Listing of recorded z-score by entry.
PARAMETER: z-score

COMPOUND	TGT	MEASUREMENT
COC(=O)[C@@]1(Cc2ccc(OC)cc2)[C@H]2c3cc(C(=O)N4CCCC4)n(Cc4ccc(C(F)(F)F)nc4)c3C[C@H]2CN1C(=O)c1ccccc1	NADPH oxidase 4 (Homo sapiens)	0.564
O=C(NCc1ccc(F)cc1)[C@H]1C[C@H]2C(=O)N3CCC[C@H]3C(=O)N2[C@H]1c1ccc(O)cc1	NADPH oxidase 4 (Homo sapiens)	-0.184
CCCN1C(=O)[C@]2(CCC(=O)OC(C)(C)C)N=C(c3ccc(OCCCO)cc3)O[C@@H]2c2ccccc21	NADPH oxidase 4 (Homo sapiens)	-0.483
CC(C)C[C@@H]1NC(=O)[C@@]23C(=O)N[C@@H](Cc4ccccc4)C2[C@H](C)[C@@]2(C)O[C@H]2C3/C=C/C/C=C\CNC(=O)CNC1=O (some centres undefined)	NADPH oxidase 4 (Homo sapiens)	1.2
CCCNC(=O)[C@@]1(c2ccc([N+](=O)[O-])cc2)CC(=O)N(C(C)C)[C@@H]1c1ccc(CO)cc1	NADPH oxidase 4 (Homo sapiens)	0.069
C=CCN1Cc2ccccc2[C@H]2OC(c3ccc(OCCCO)cc3)=N[C@@]2(CCS(=O)(=O)c2ccccc2)C1=O	NADPH oxidase 4 (Homo sapiens)	1.93
CC(C)N1C(=O)C[C@@](C(=O)NCCN2CCOCC2)(c2ccc([N+](=O)[O-])cc2)[C@H]1c1ccc(CO)cc1	NADPH oxidase 4 (Homo sapiens)	-0.685
O=C(NCCN1CCOCC1)[C@@H]1c2ccccc2C(=O)N(Cc2ccccc2C(F)(F)F)[C@H]1c1ccc(CO)cc1	NADPH oxidase 4 (Homo sapiens)	0.484
CC(C)OC(=O)CC(=O)CC(O)c1cccc([N+](=O)[O-])c1 (centres undefined)	NADPH oxidase 4 (Homo sapiens)	0.147
O=C1O[C@@H](c2ccccc2)[C@@H](c2ccccc2)N2[C@@H](c3ccc(OCCO)cc3)[C@]3(C(=O)Nc4ccc(C#CCCO)cc43)[C@@H](C(=O)O)[C@H]12	NADPH oxidase 4 (Homo sapiens)	0.716
CC(=O)OCC1C2CC[C@H]3C(OCc4ccc(F)cc4C(F)(F)F)OC[C@]4(C)[C@H]3C2=C(CN4C(=O)OC(C)(C)C)[C@H](C)C1COC(C)=O (some centres undefined)	NADPH oxidase 4 (Homo sapiens)	-2.29
COc1cc(CO)cc(I)c1O[C@H]1C=C(C(=O)NCCO)C[C@@H]2O[C@H]12	NADPH oxidase 4 (Homo sapiens)	-0.691
CN(C)C(=O)[C@]1(Cc2ccccc2)N=C(c2ccc(OCCCO)cc2)O[C@@H]1c1ccccc1CN=[N+]=[N-]	NADPH oxidase 4 (Homo sapiens)	-0.846
[N-]=[N+]=Nc1ccccc1C[C@@]1(C(=O)NCc2ccccc2)N=C(c2ccc(OCCCO)cc2)O[C@@H]1c1ccccc1N=[N+]=[N-]	NADPH oxidase 4 (Homo sapiens)	-2.16
COC(=O)[C@H](Cc1ccccc1)N1CC2=CCCC=C[C@@H]2[C@H]1[C@H](O)Cc1ccccc1	NADPH oxidase 4 (Homo sapiens)	-0.477
O=C(NCc1ccccc1)[C@@H]1c2ccccc2C(=O)N(Cc2ccc(OC(F)(F)F)cc2)[C@H]1c1ccc(CO)cc1	NADPH oxidase 4 (Homo sapiens)	0.263
Cc1ccc(S[C@]2(C(=O)NC3CC3)CC(=O)N(C(C)C)[C@@H]2c2ccc(CO)cc2I)cc1	NADPH oxidase 4 (Homo sapiens)	-1.91
C=CCN1C(=O)[C@]2(O[C@H](CCn3cc([C@H](O)c4ccccc4)nn3)[C@@H]([Si](C)(C)c3ccc(OC)cc3)[C@@H]2C)c2cc(NC(=O)c3ccc(OC)cc3)ccc21	NADPH oxidase 4 (Homo sapiens)	0.564
COc1cc(OC)c(C(O)C2C=CC3C(=O)N(c4ccccc4)C(=O)C3N2Nc2ccc(C(C)C)cc2)cc1Br (centres undefined)	NADPH oxidase 4 (Homo sapiens)	-3.73
O=C(NCC(O)CO)[C@@]1(CCS(=O)(=O)c2ccccc2)N=C(c2ccc(OCCCO)cc2)O[C@H]1c1ccccc1 (some centres undefined)	NADPH oxidase 4 (Homo sapiens)	1.47
O=C(NCCN1CCOCC1)[C@@H]1c2ccccc2C(=O)N(Cc2ccc(OC(F)(F)F)cc2)[C@H]1c1ccc(CO)cc1	NADPH oxidase 4 (Homo sapiens)	0.891
CCCC[C@H]1OB(O)C[C@H]2C1=C(COc1ccccc1)C[C@H]1C(=O)C=CC(=O)[C@H]12	NADPH oxidase 4 (Homo sapiens)	-1.48
COc1ccc(CCNC(=O)[C@@H]2c3ccccc3C(=O)N(Cc3ccccc3OC)[C@H]2c2ccc(CO)cc2)cc1	NADPH oxidase 4 (Homo sapiens)	-0.213
C=CCC(OC(C)=O)[C@@H]1[C@@H](N(Cc2ccc(-c3ccccc3)cc2)C(=O)c2cccc3ccccc23)c2cc(OCCCO)ccc2N1C(=O)Cc1ccc(OC)cc1 (some centres undefined)	NADPH oxidase 4 (Homo sapiens)	-0.0822
COc1ccc([Si](C)(C)[C@H]2[C@H](CCO)O[C@@]3(C(=O)N(Cc4cccc(N5C(=O)c6ccccc6Oc6ccccc65)c4)c4ccccc43)[C@@H]2C)cc1	NADPH oxidase 4 (Homo sapiens)	2.27
Cc1ccc(S[C@]2(C(=O)NCC(F)(F)F)CC(=O)N(Cc3ccccc3C(F)(F)F)[C@@H]2c2ccc(CO)cc2)cc1	NADPH oxidase 4 (Homo sapiens)	0.426
CCN(CC)c1ccc(N2CC=CC34O[C@@H]5C=CCCOC(=O)C5[C@H]3C(=O)N(C(C)CO)[C@@H]4C2=O)cc1 (some centres undefined)	NADPH oxidase 4 (Homo sapiens)	0.447
O=C1C[C@@](C(=O)NCc2ccccc2)(c2ccc([N+](=O)[O-])cc2)[C@@H](c2ccc(CO)cc2)N1C1CCCCC1	NADPH oxidase 4 (Homo sapiens)	0.333
CCCCCC1=C2CNC(CC(C)C)(C(=O)OC)C=C2C(C)C1=O (centres undefined)	NADPH oxidase 4 (Homo sapiens)	-0.636

Value source: PubChem BioAssay
